Source of measurements: ChEMBL document CHEMBL4325889

Tested on: PC-3
RUN DESCRIPTION: Growth inhibition of human PC3 cells at 10 uM after 48 hrs by SRB assay relative to control
Assay type: functional
SETTINGS: PC-3, 48 h, read-out: GI
Classify by measured inhibition of growth at 10 µM: YES if it is equal to or exceeds 20%, NO if it is smaller.

Answered cases to consult:
INSERT INTO assay_data (structure_as_smiles, group_label) VALUES
  ('COc1ccccc1NC(=O)c1cccc(-c2cc(=O)c3c(O)c(OC)c(OC)cc3o2)c1', 'YES'),
  ('COc1ccccc1C(=O)Nc1cccc(-c2cc(=O)c3c(O)c(OC)c(OC)cc3o2)c1', 'NO'),
  ('COc1cc2oc(-c3cccc(C(=O)Nc4ccc5c(c4)OCO5)c3)cc(=O)c2c(O)c1OC', 'YES'),
  ('COc1cc2oc(-c3cccc(NC(=O)c4ccc5c(c4)OCO5)c3)cc(=O)c2c(O)c1OC', 'YES');

Lab note: next compound to report on.
Test whether the compound COc1ccccc1NC(=O)c1cccc(-c2cc(=O)c3c(OC)c(OC)c(OC)cc3o2)c1 records inhibition of growth at 10 µM of 20% or higher.
YES
